Let's look at some binders and their measured Relative binding activity.
- SYSTEM_UNDER_TEST: T1, recombinant human soluble gpNMB (recombinant human gpNMB-FLAG-His) (human, UniProt Q14956 23-498)
- T1 sequence: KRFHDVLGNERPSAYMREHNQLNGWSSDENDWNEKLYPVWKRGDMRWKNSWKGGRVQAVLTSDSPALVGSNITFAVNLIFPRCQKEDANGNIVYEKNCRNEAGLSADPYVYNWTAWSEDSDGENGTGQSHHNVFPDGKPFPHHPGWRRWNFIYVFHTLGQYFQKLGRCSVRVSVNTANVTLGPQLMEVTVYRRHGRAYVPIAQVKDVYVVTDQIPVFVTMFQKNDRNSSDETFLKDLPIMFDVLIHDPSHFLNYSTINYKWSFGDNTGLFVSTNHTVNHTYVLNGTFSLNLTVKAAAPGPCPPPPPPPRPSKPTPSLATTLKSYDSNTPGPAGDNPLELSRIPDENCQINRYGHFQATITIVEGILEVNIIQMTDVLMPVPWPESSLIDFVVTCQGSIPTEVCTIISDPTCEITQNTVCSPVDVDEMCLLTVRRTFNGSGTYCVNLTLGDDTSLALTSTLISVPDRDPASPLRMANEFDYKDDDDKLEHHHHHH
- ASSAY_INFO: antigen ELISA, vs hGPN06-1_H1L1
// print number alone

hGPN06-1_H1L1 VH N59A (antibody, V domains shown) VH: QVQLVQSGAEVKKPGASVKVSCKASGYTFTDNWMGWVKQRPGQGLEWIGAIDPSDSFTAYNQNFKGRVTMTVDTSISTAYMELSRLRSDDSAVYFCTRSGYYGSPKLGGDYWGQGTLVTVSS VL: EIVLTQSPSSLSASVGDRVTITCSASSSISYMHWYQQKSGTAPKLLIYSTSNLASGVPSRFSGSGSGTDFTFTISSLQPEDAATYYCHQWNSYPCTFGGGTKLEIK ... 0.04

The record that follows has no Relative binding activity shown yet.
Exercise: Give its Relative binding activity value. Item: hGPN06-1_H1L1 VH S54A (antibody, V domains shown) VH: QVQLVQSGAEVKKPGASVKVSCKASGYTFTDNWMGWVKQRPGQGLEWIGAIDPADSFTNYNQNFKGRVTMTVDTSISTAYMELSRLRSDDSAVYFCTRSGYYGSPKLGGDYWGQGTLVTVSS VL: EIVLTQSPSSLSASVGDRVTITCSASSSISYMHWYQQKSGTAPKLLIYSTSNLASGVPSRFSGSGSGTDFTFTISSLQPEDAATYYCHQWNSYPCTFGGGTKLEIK
Key: 0.92

Hello, the source for this data is patent EP4772193A1, in case you need it.
